Data provenance: ChEMBL document CHEMBL1201862

molecular target: Endoribonuclease toxin MazF (Escherichia coli K-12); assay: substrate-only fluorescence increase artefacts – biochemical, single-stranded RNase substrate, counter-screen for MazEF activator project, dose response (AID 588502); assay type: functional
Sequence (P0AE70 whole entry): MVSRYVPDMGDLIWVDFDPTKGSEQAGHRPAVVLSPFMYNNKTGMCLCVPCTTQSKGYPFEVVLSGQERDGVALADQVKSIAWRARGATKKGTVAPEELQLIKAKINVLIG
Calls of active or inactive are those of the source.
outcome-measure: EC50

Reported EC50 ( Cc1ccc2nc(N3C(=O)C(O)=C(C(=O)c4ccco4)C3c3cccs3)sc2c1 (stereo not given) ) = > 99 µM (inactive)

Input `CC1(C)OC(c2ccccc2)=C/C(=C/C=C2C(=O)NC(=S)NC2=O)O1` . Output EC50: 13.9 µM (active)

For reference, reported EC50 for `COC(=O)c1sc2nc(SCc3cccc(F)c3)n(N)c(=O)c2c1C` stands at > 99 µM (inactive)

// field: EC50; key: `CCN(CC)c1ccc2cc(C(=O)Nc3ccccn3)c(=O)oc2c1` ; value = > 99 µM (inactive)

Entry `Oc1[nH]c2ccccc2c1N=Nc1ccccc1F` ; EC50 = 31.7 µM (inactive)

----------
Exercise: state measured EC50 for each of the compounds provided.
molecular target: Peroxisome proliferator-activated receptor gamma/Nuclear receptor coactivator 2 (Homo sapiens); experiment: TR-FRET dose response biochemical High Throughput Screening assay for agonists of the steroid receptor coactivator 2 (SRC-2) recruitment by the peroxisome proliferator-activated receptor gamma (PPAR gamma): non-selective agonists. [Related pubchem assays: 1297, 1032 ]; assay type: functional
Sequence (P37231 whole entry): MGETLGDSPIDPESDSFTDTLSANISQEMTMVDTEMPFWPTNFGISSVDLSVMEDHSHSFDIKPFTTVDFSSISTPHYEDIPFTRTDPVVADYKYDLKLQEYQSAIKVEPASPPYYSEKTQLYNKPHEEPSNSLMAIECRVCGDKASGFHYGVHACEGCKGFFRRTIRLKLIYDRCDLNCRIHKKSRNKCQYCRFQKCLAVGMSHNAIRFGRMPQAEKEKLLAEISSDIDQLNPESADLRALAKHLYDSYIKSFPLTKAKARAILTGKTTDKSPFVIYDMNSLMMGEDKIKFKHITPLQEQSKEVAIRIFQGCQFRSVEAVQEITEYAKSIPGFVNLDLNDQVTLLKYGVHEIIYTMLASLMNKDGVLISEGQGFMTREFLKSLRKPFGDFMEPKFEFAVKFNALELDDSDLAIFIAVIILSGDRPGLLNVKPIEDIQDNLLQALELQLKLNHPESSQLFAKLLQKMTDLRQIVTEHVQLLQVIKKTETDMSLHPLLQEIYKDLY
Sequence (Q15596 whole entry, further chain): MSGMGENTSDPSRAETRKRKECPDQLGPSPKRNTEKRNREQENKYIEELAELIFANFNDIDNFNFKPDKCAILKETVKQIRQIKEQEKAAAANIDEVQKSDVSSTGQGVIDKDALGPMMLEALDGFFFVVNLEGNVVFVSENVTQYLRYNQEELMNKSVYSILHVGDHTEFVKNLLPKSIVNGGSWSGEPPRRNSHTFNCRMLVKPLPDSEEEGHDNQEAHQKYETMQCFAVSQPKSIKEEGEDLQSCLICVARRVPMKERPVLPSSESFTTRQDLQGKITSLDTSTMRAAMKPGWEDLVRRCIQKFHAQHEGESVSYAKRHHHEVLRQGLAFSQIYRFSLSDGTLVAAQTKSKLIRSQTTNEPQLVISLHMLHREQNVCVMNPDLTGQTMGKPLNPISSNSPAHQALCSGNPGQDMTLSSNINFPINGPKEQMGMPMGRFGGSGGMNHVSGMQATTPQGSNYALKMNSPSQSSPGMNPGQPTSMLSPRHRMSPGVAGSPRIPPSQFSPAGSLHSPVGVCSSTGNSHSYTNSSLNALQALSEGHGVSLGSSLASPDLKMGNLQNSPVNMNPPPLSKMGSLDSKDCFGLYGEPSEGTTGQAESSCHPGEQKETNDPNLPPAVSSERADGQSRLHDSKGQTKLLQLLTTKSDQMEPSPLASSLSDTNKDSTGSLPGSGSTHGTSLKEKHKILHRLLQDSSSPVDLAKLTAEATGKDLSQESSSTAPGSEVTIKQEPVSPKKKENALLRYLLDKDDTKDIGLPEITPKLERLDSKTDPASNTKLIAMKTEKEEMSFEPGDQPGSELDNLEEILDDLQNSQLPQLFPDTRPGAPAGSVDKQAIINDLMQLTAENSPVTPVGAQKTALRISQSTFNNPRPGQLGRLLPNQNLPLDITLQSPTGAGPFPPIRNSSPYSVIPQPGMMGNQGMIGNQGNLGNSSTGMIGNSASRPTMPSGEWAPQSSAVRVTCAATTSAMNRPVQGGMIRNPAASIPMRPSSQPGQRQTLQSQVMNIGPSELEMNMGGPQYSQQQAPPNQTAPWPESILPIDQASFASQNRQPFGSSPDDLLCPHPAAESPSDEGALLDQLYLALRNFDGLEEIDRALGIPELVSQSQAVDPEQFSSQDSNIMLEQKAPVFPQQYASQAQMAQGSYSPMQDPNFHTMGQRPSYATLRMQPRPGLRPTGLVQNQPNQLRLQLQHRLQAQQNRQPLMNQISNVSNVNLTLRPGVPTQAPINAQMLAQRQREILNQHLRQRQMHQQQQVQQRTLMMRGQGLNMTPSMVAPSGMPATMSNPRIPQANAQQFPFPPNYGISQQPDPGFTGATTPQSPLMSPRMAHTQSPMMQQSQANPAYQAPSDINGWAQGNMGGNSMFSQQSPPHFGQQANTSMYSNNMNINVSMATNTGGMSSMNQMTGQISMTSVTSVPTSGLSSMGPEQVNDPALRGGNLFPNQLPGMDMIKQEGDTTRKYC
Active and inactive are the calls of the source.

Entry `CN(C)c1ccc(/C=C/C=C2/C(=O)NC(=O)N(c3ccccc3)C2=O)cc1` ; EC50 = 4.13 µM (active)

According to the records, this compound `CC(C)Sc1ncnc2c1oc1ccccc12` displays EC50 of 26.2 µM (not active)

Item: `CC(C)CC(=O)NC(=S)Nc1cccc2nsnc12` | EC50: 2.92 µM (active)

Record summary for `O=C(NN1C(=O)/C(=C/c2nc3ccccc3[nH]2)SC1=S)c1ccccc1Cl` : reported EC50 = 44.5 µM (not active)

Measured EC50 of `Nc1nc(-c2c[nH]c3ccccc23)cs1` : 24.2 µM (not active)

----------
target: DNA repair protein RAD52 homolog (Homo sapiens, UniProt P43351); format: functional, biochemical
Sequence (P43351 whole entry): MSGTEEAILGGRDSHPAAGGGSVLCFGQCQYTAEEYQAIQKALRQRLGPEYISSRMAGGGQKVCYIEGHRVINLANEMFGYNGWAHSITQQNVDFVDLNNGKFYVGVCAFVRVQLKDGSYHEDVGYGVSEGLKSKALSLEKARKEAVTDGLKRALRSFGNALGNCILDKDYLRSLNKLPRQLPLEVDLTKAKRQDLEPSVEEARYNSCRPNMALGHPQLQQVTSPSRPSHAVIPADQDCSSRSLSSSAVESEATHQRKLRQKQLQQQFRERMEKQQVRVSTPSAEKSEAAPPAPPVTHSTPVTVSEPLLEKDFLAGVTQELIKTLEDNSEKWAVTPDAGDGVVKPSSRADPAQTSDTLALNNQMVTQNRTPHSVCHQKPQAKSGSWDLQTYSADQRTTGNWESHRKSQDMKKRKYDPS
Counter-ions that a name gives are not always drawn. Calls of active or inactive are those of the source.
outcome-measure: AC50

The recorded AC50 for entry `Cc1c(P(=S)(c2ccccc2)c2ccccc2)[n+]2ccccc2n1C` equals 10.4 µM (active)

So for `Nc1ccc2[nH]c(CCCO)nc2c1` , the logged AC50 turned out to be 8.48 µM (active)

# AC50 (molecule: `N=C(N)Nc1nc(-c2ccccc2)c2cc(Cl)ccc2n1` ) is 6.61 µM (active)

Briefly, AC50 measured for CCC(C)[C@H](N)c1cn([C@@H](Cc2cc3ccccc3[nH]2)C(=O)N2CCNCC2)nn1 (some centres not stated) : 8.23 µM (active)

COc1cc(NS(C)(=O)=O)ccc1Nc1c2ccccc2nc2ccccc12 [AMSACRINE HYDROCHLORIDE] yielded AC50 of 6.83 µM (active)

Recorded result, `CN(C)CCNC(=O)c1cccc2nc3cccc(F)c3nc12` , AC50: 4.63 µM (active)

The value of AC50 measured for the molecule `CCN(CC)CCNC(=O)c1ccc(NC(=O)c2cc(-c3ccncc3)nc3ccccc23)cc1` turned out to be 20.4 µM (active)
